Each record here notes measured pIC50.
- Tested on: VCaP cells
- Experimental Details: Cellular potency (IC50) in VCaP cells
- Type: cell-based
- Conditions Used: Homo sapiens, VCaP
pIC50: −log10 of the molar value.

- Molecule: "C=C1CCC(N2C(=O)c3ccc(N4CC(C5CCN(Cc6ccc(N7CCC8(CC7)C[C@H](C)N(c7ccc(C#N)c(Cl)c7)C8)cc6)CC5)C4)cc3C2=O)C(=O)N1 (stereo partly drawn)"
  pIC50: "> 8.00"
- Molecule: "C[C@H]1CC2(CCN(c3ccc(CN4CCN(C5CN(c6ccc7c(c6)C(=O)N(C6CCC(=O)NC6=O)C7=O)C5)CC4)cc3)CC2)CN1c1ccc(C#N)c(Cl)c1 (stereo partly drawn)"
  pIC50: "> 8.00"
- Molecule: "C[C@H]1CC2(CCN(c3cnc(N4CCN(CC5CCN(c6ccc7c(c6)C(=O)N(C6CCC(=O)NC6=O)C7=O)CC5)CC4)cn3)CC2)CN1c1ccc(C#N)c(Cl)c1 (stereo partly drawn)"
  pIC50: "> 7.00"

----------
- Tested on: VCaP cells
- Experimental Details: Cellular potency (IC50) in VCaP cells
- Format: cell-based
- Conditions Used: Homo sapiens, VCaP
Recorded IC50 values for a group of compounds are listed next.
Readout Name: IC50

- Compound: "C[C@H]1CC2(CCN(c3ccc(OC4CCN(C5CN(c6ccc7c(c6)C(=O)N(C6CCC(=O)NC6=O)C7=O)C5)CC4)nn3)CC2)CN1c1ccc(C#N)c(Cl)c1 (some centres unmarked) [compound 62]"
  Reported Value: "< 10 nM"
- Compound: "C[C@H]1CC2(CCN(c3ccc(CN4CC(N5CCN(c6ccc7c(c6)C(=O)N(C6CCC(=O)NC6=O)C7=O)CC5)C4)cn3)CC2)CN1c1ccc(C#N)c(Cl)c1 (some centres unmarked) [compound 204]"
  Reported Value: "< 10 nM"
- Compound: "C[C@H]1CC2(CCN(c3ccc(C(=O)N4CCC(N5CCOc6cc7c(cc6C5)C(=O)N(C5CCC(=O)NC5=O)C7=O)CC4)cc3)CC2)CN1c1ccc(C#N)c(Cl)c1 (some centres unmarked) [compound 194]"
  Reported Value: "< 100 nM"
- Compound: "C[C@H]1CC2(CCN(c3ccc(CN4CCN(C5CCN(c6ccc7c(c6)C(=O)N(C6CCC(=O)NC6=O)C7=O)CC5)CC4)nc3)CC2)CN1c1ccc(C#N)c(Cl)c1 (some centres unmarked) [compound 182]"
  Reported Value: "< 100 nM"
- Compound: "C[C@H]1CC2(CCN(c3ccc(N4CCN(CC5CCN(c6ccc7c(c6)C(=O)N(C6CCC(=O)NC6=O)C7=O)CC5)CC4)nc3)CC2)CN1c1ccc(C#N)c(Cl)c1 (some centres unmarked) [compound 35]"
  Reported Value: "< 10 nM"

----------
- Target Or System: AR (Homo sapiens, UniProt P10275)
- Construct: Degradation of AR; Cellular potency; host or cells: VCaP cells
- Sequence (P10275 1-920): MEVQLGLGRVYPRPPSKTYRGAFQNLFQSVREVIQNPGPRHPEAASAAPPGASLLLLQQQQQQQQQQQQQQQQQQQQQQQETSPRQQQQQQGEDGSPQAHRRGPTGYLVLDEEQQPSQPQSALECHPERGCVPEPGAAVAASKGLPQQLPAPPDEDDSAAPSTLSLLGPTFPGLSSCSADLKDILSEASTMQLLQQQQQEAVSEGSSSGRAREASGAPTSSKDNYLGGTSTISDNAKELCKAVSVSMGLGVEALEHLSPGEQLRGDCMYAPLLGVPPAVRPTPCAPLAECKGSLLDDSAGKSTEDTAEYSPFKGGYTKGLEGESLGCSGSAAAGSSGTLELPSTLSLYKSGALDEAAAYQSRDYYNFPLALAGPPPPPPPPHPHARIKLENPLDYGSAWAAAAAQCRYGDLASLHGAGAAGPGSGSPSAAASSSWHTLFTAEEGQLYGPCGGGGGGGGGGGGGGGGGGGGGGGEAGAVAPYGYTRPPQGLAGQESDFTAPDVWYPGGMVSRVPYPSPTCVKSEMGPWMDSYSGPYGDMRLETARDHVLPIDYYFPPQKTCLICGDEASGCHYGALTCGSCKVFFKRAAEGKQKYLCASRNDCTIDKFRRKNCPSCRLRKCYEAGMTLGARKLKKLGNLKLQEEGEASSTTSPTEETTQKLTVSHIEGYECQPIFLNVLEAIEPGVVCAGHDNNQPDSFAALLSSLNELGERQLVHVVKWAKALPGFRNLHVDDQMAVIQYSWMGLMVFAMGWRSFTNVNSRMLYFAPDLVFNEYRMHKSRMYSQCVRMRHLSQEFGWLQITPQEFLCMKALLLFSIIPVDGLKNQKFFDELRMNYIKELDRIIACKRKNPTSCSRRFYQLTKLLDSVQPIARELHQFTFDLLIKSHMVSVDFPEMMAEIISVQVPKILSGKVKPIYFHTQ
- Experimental Details: Degradation of AR in VCaP cells
- Format: cell-based
- Conditions Used: VCaP, VCaP cells
Reported Dmax values follow for various compounds

- Compound: "C[C@H]1CC2(CCN(c3ccc(CN4CCC(CN5Cc6cc7c(cc6C5)C(=O)N(C5CCC(=O)NC5=O)C7=O)CC4)cc3)CC2)CN1c1ccc(C#N)c(Cl)c1 (some centres unmarked)"
  Dmax: "70 to 90%"
- Compound: "C[C@H]1CC2(CCN(c3ccc(N4CCC(CN5CCN(c6ccc7c(c6)C(=O)N(C6CCC(=O)NC6=O)C7=O)CC5)CC4)nc3)CC2)CN1c1ccc(C#N)c(Cl)c1 (some centres unmarked)"
  Dmax: "> 90%"
- Compound: "C[C@H]1CC2(CCN(c3ccc(CN4CCN(C5CCN(c6ccc7c(c6)C(=O)N(C6CCC(=O)NC6=O)C7=O)CC5)CC4)c(F)c3)CC2)CN1c1ccc(C#N)c(Cl)c1 (some centres unmarked)"
  Dmax: "> 90%"
- Compound: "C[C@H]1CC2(CCN(c3ccc(OC4CCN(C5CCN(c6ccc7c(c6)C(=O)N(C6CCC(=O)NC6=O)C7=O)CC5)CC4)cc3)CC2)CN1c1ccc(C#N)c(Cl)c1 (some centres unmarked)"
  Dmax: "> 90%"
- Compound: "C[C@H]1CC2(CCN(c3ccc(OC4CCN(C5CN(c6ccc7c(c6)C(=O)N(C6CCC(=O)NC6=O)C7=O)C5)CC4)cn3)CC2)CN1c1ccc(C#N)c(Cl)c1 (some centres unmarked)"
  Dmax: "> 90%"
